Assay: Pharmacokinetics after subcutaneous administration in rats
Assay type: in vivo
Settings: plasma; Rat, SC, 6 mg/kg

compound | AUC(0-t), ng·h/mL
CO[C@@H]1[C@H](OC(=O)N2CC(CCN3CCOCC3)C2)CC[C@]2(CO2)[C@H]1[C@@]1(C)O[C@@H]1CC=C(C)C | 391
CO[C@@H]1[C@H](OC(=O)/C=C/c2ccc(OCCN(C)C)cc2)CC[C@]2(CO2)[C@H]1[C@@]1(C)O[C@@H]1CC=C(C)C [beloranib, reference compound] | 412

* * *

Assay: Pharmacokinetics after intravenous administration in dogs
Conditions: in vivo; Dog, IV Bolus, 1 mg/kg

query smiles | clearance
CO[C@@H]1[C@H](OC(=O)N2CC(CCN3CCOCC3)C2)CC[C@]2(CO2)[C@H]1[C@@]1(C)O[C@@H]1CC=C(C)C | 45.3 mL/min/kg
